molecular target: Low molecular weight phosphotyrosine protein phosphatase (Homo sapiens); test: inhibition of human LMPTP-A enzyme – biochemical, fluorescence intensity, uHTS, primary screen (AID 651560); settings: recombinant LMPTP-A, OMFP fluorogenic substrate, at 20 µM, active compounds read high;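 note: plate controls were DMSO wells with enzyme plus substrate for no effect and substrate without enzyme for full effect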
Hit rate of the full screen: of about 360,000 compounds, about 820 (0.23%) were called active. This excerpt belongs to a sample that is enriched for actives.
This listing pairs compounds with measured inhibition.
Value expressed in %; do not type the unit.

Use the examples below as a reference point.
COc1cc(CCN=Cc2ccccc2O)c([N+](=O)[O-])cc1OC	0.174
Cn1ccc(=Nc2ccc(NC(=O)c3ccc(N=c4ccn(C)c5ccc([N+](=O)[O-])cc45)cc3)cc2)cc1	78
O=C(Nc1cc2c3c(c1)C1CCCC1CN3CC1CCCC21)c1ccc([N+](=O)[O-])cc1 (stereo not given)	2.81
CCN(CC)CCNC(=O)c1sc2ncn(CC(=O)Nc3ccc(C)c(Cl)c3)c(=O)c2c1C	-0.286
O=S(=O)(c1ccc(Cl)cc1)N1CCCN(c2ccc(C(F)(F)F)cn2)CC1	2.43

Please list inhibition recorded for the compound O=C(Nc1cccnc1)c1cc2cc(Br)ccc2oc1=O 45.7

Please list inhibition recorded for the compound O=C(Nc1ccncc1)c1cc(-c2ccccn2)nc2ccc(Br)cc12 51.5

Please list inhibition recorded for the compound CCOC(=O)N1CCN(C(=S)Nc2ccc(C)cc2C)CC1 -1.47

Please list inhibition recorded for the compound O=C(Nc1ccc(C2CC2(Cl)Cl)cc1)c1cccc([N+](=O)[O-])c1 (stereo not given) 2.23

Please list inhibition recorded for the compound CN(C)c1cccc(C(=O)N2CCC(n3nccc3NC(=O)C3CCOC3)CC2)c1 (stereo not given) -1.94

----------
target: Low molecular weight phosphotyrosine protein phosphatase (Homo sapiens) (UniProt P24666); test: inhibition of human LMPTP-A enzyme – biochemical, fluorescence intensity, uHTS, primary screen (AID 651560); details: recombinant LMPTP-A, OMFP fluorogenic substrate, at 20 µM, active compounds read high;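 note: plate controls were DMSO wells with enzyme plus substrate for no effect and substrate without enzyme for full effect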
Sequence (P24666 whole entry, looked up): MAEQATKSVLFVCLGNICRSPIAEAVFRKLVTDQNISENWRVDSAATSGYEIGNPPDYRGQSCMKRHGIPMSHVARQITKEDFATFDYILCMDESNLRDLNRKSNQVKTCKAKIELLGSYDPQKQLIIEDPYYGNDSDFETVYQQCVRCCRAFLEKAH
The whole screen tested about 360,000 compounds, of which about 820 (0.23%) were called active. For the sample, actives were picked, then their nearest neighbours and some compounds at random.
property: inhibition (%)
Value expressed in %; do not type the unit.

COc1cc(OC)cc(/C(N)=N/O)c1	0.166
CN(C)C(=O)Cn1c(=O)n(S(=O)(=O)c2ccccc2)c2ccccc21	-0.0726
O=C(CN1CCN(C(=O)c2ccco2)CC1)Nc1ccc2c(c1)OCO2	-0.639
O=C(Nc1cc(S(=O)(=O)N2CCOCC2)ccc1N1CCOCC1)c1c(F)cccc1Cl	-0.613

Please list inhibition recorded for the molecule O=C(CCN1C(=O)c2ccncc2C1=O)Nc1ccc2c(c1)OCCO2 0.479

Please list inhibition recorded for the molecule CCn1ccnc1CNC(=O)CC1C(=O)NCCN1CCCc1ccccc1 (stereo not drawn) -2.22

Please list inhibition recorded for the molecule COC(=O)CN1C(C)=Nc2ccc(Br)cc2C1c1ccccc1 (stereo not drawn) -0.193

Please list inhibition recorded for the molecule CCCN1C(=O)C(NS(=O)(=O)c2ccc(N)cc2)(C(F)(F)F)C(C(=O)OC)=C1C (stereo not drawn) -1.38

Please list inhibition recorded for the molecule COc1ccc(OC)c(Nc2nc(-c3ccc(O)c(O)c3)cs2)c1 62.5

Please list inhibition recorded for the molecule O=C(O)c1ccccc1OCc1ccccc1Cl -0.307

Please list inhibition recorded for the molecule CCOP(=O)(OCC)C(Nc1cccc(C)c1)c1ccc(F)cc1 (stereo not drawn) 0.494

Sourced from PubChem BioAssay AID651560
